- Test system: Rattus norvegicus
- assay_explanation: Biodistribution in spleen of immature female rat after 1 hr administration of 3 micro Ci (111 kBq) in the absence of 60 microg estradiol
- Format: ADME, organism-based
- measurement_context: in vivo
measured_endpoint: ID/g (%)
Field: numeric (%). Do not append units.

// solved cases for ID/g follow
Check the records and state ID/g for C[C@@H]1Cc2cc(O)c(F)cc2[C@H]2CC[C@@]3(C)[C@@H](CC[C@@]3(O)/C=C\I)[C@H]12
1.12

Consider the molecule C[C@]12CC[C@@H]3c4ccc(O)c(F)c4CC[C@H]3[C@@H]1CC[C@@]2(O)/C=C\I . State its measured ID/g.
1.02

Complete the entry with ID/g for C[C@@H]1Cc2cc(O)c(F)cc2[C@H]2CC[C@@]3(C)[C@@H](CC[C@@]3(O)/C=C/I)[C@H]12
0.31

---
Identify the reported ID/g for the following entry. C[C@]12CC[C@@H]3c4cc(F)c(O)cc4CC[C@H]3[C@@H]1CC[C@@]2(O)/C=C/I
0.57

###

- System: Rattus norvegicus
- assay_explanation: Biodistribution in spleen of immature female rat after 1 hr administration of 3 micro Ci (111 kBq) in the presence of (+E2)
- Assay type: ADME, organism-based
- measurement_context: in vivo
measured_endpoint: ID/g (%)
The reply should be a number in %, with the unit left off.

Here is how some compounds turned out for ID/g.
Tell me ID/g reported for C[C@]12CC[C@@H]3c4ccc(O)c(F)c4CC[C@H]3[C@@H]1CC[C@@]2(O)/C=C\I
0.56

// fetch ID/g given entry C[C@]12CC[C@@H]3c4cc(F)c(O)cc4CC[C@H]3[C@@H]1CC[C@@]2(O)/C=C\I
1

Annotate the compound CO[C@H]1C[C@@]2(C)[C@@H](CC[C@@]2(O)/C=C\I)[C@@H]2CCc3c(ccc(O)c3F)[C@H]21 with its measured ID/g.
1.28

Provide one value: measured ID/g of C[C@@H]1Cc2c(ccc(O)c2F)[C@H]2CC[C@@]3(C)[C@@H](CC[C@@]3(O)/C=C/I)[C@H]12
1.29

Consider the compound C[C@]12CC[C@@H]3c4ccc(O)c(F)c4CC[C@H]3[C@@H]1CC[C@@]2(O)/C=C/I and give its recorded ID/g.
0.51

Others:
Please look at this compound and report its ID/g: C[C@]12CC[C@@H]3c4cc(F)c(O)cc4CC[C@H]3[C@@H]1CC[C@@]2(O)/C=C/I
0.56

Dear colleague, please send me the reported ID/g for C[C@@H]1Cc2cc(O)c(F)cc2[C@H]2CC[C@@]3(C)[C@@H](CC[C@@]3(O)/C=C\I)[C@H]12 when you can.
0.56

Return reported ID/g. Input compound: C[C@@H]1Cc2c(ccc(O)c2F)[C@H]2CC[C@@]3(C)[C@@H](CC[C@@]3(O)/C=C\I)[C@H]12
0.69

Report ID/g for CO[C@H]1C[C@@]2(C)[C@@H](CC[C@@]2(O)/C=C/I)[C@@H]2CCc3cc(O)c(F)cc3[C@H]21
1.04

Fill in reported ID/g for this entry: C[C@@H]1Cc2cc(O)c(F)cc2[C@H]2CC[C@@]3(C)[C@@H](CC[C@@]3(O)/C=C/I)[C@H]12
0.45

###

- Test system: Rattus norvegicus
- assay_explanation: Biodistribution in fat of immature female rat after 3 hour administration of 3 micro Ci (111 kBq) in the absence of 60 microg estradiol
- Type: ADME, organism-based, Adipose tissue
- measurement_context: in vivo
measured_endpoint: ID/g

Here are 2 compounds together with their reported answers.
Recall and state the measured ID/g for C[C@]12CC[C@@H]3c4cc(F)c(O)cc4CC[C@H]3[C@@H]1CC[C@@]2(O)/C=C/I .
3.17%

For C[C@@H]1Cc2cc(O)c(F)cc2[C@H]2CC[C@@]3(C)[C@@H](CC[C@@]3(O)/C=C/I)[C@H]12 , write its ID/g.
1.36%

Okay, next one:
Please give measured ID/g of the following entry: CO[C@H]1C[C@@]2(C)[C@@H](CC[C@@]2(O)/C=C\I)[C@@H]2CCc3c(ccc(O)c3F)[C@H]21
1.13%
